# Read-out: Monocyte Chemoattractant Protein-1 (MCP1), CCL2 (gene 6347)
# PROCEDURE_TEXT: BSK_CASM3C_MCP1: BioMAP Diversity Plus: CASM3C Assay for Monocyte Chemoattractant Protein-1 (MCP1) Biomarker Activity (AID 2283046);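 also: MCP-1 level quantified by ELISA 24 h after dosing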
# ASSAY_CONTEXT: primary human coronary artery smooth muscle cells; actives raise or lower the signal
Active and inactive are the calls of the source. The calls were made as follows: active = hit-call score of the fitted dose curve at least 0.9, where 1 is the maximum; inactive = score below 0.9.
Form entry, call: pick from active, inactive

Below are worked cases with known answers.
C[Si]1(C)O[Si](C)(C)O[Si](C)(C)O[Si](C)(C)O1
inactive
Nc1ccccc1N
inactive
NC(=O)Cn1c(=O)cc(CCN2CCN(c3nccc4sccc34)CC2)c2ccc(F)cc21
inactive
Cc1c(C(=O)O)c(O)cc2c1C(=O)c1c(O)c([C@@H]3O[C@H](CO)[C@@H](O)[C@H](O)[C@H]3O)c(O)c(O)c1C2=O
inactive
CCCCCCCCCCCCCO
active

Hey, what did the test say about CCCCCC(=O)O ?
inactive

Recorded call for CCCCCCOCCO ?
inactive
